Test system: LOX IMVI
Test: NCI tumour cell line growth inhibition, 48 h
Calls of active or inactive are those of the source. Cut-off read from the data, not from the text of the source: active = GI50 up to about 1.1 µM and inactive = higher.
I would appreciate it if you answered using one of these outcomes: true = active, false = inactive

Observe how each entry below is paired with its result.
Oc1ncnc2c1sc(=S)n2-c1ccccc1    false
O=S(O)CCCCCSSc1ccc(Cl)cc1    false
CCC1C[N+]23CCc4c([nH]c5ccccc45)C2CC1CC3 (stereo unspecified)    false
Cc1ccc(Nc2cc(=O)[nH]c(=S)[nH]2)cc1    false
COc1cc2c(cc1[N+](=O)[O-])C(=O)C(Br)(Br)CCC2    true

Could you check what this test reported for O=C(/C=C(\O)C(=O)O)/C=C(\O)c1ccc(Cl)cc1 ?
false

# repeat for CC1(C)CC2(S(=O)(=O)c3ccccc3)ON1CC2S(=O)(=O)c1ccccc1 (stereo unspecified)
false

# repeat for COc1ccccc1N1C(=O)/C(=C\c2ccccc2)SC1c1cc(OC)c(OC)c(OC)c1 (stereo unspecified)
false

# repeat for NC1C/C(=N\O)c2c(Cl)sc(Cl)c21 (stereo unspecified)
false

# repeat for CC[N+](CC)(CCNCC(N)=O)CC(N)=O
false

# repeat for Cn1cnnc1Sc1c([N+](=O)[O-])nc(-c2ccc([N+](=O)[O-])cc2)n1C
false

----------
Test system: SK-MEL-28
Test: NCI tumour cell line growth inhibition, 48 h
Active and inactive are the calls of the source. Rule as the data show it: active = GI50 up to about 1.1 µM and inactive = higher.
outcome.measure: GI50

N#C/C(=C\c1ccc2ccccc2c1)C(=O)c1ccccc1    > 47 µM (inactive)
Cn1cnnc1Sc1c([N+](=O)[O-])nc(-c2ccc([N+](=O)[O-])cc2)n1C    16 µM (inactive)
CC1=CCC(O)C=CC(C)C(O)C(C)C=C(C)C(=O)c2c(O)c(C)cc3c2C(=O)C(N)=C(NC(=O)/C=C\C=C/C=CC(C)C(O)CC1=O)C3=O (stereo not given)    > 100 µM (inactive)
CC1=CC(=O)/C(=C/NC(=O)NN)C(=O)O1    54.5 µM (inactive)

Please examine the following record next.
Which measured GI50 value corresponds to O=c1ncccn1C1OC(CO)C(O)C1O (stereo not given) ?
> 100 µM (inactive)

----------
System: 786-0
Assay: NCI tumour cell line growth inhibition, 48 h
Calls of active or inactive are those of the source. No stated cut-off is given here; in the data, active = GI50 up to about 1.1 µM and inactive = higher.
outcome.measure: GI50

Dear reader, for each entry below, please note its GI50.
1. ON=C(CC(O)(C(F)(F)Cl)C(F)(F)Cl)CC(O)(C(F)(F)Cl)C(F)(F)Cl
2. O=C(NCCCNC(=O)c1ccc2c(O)c(O)ccc2c1)c1ccc2c(O)c(O)ccc2c1
3. O=C(O)c1ccc(C2C3C=CC(C3)C2[N+](=O)[O-])cc1 (stereo unspecified)
4. O=C1CSC(c2ccc([N+](=O)[O-])cc2)N1c1nc(-c2ccc3c(c2)CCCC3)cs1 (stereo unspecified)
5. N#Cc1nc(CSCc2ccccc2)oc1N

5.21 µM (inactive)
23.9 µM (inactive)
> 100 µM (inactive)
> 100 µM (inactive)
> 100 µM (inactive)

Dear reader, for each entry below, please note its GI50.
1. COc1cc2oc(=O)ccc2cc1C(=O)CC(C)C
2. COc1ccc(/C=C/c2cc(O)cc(OC)c2)cc1
3. CCN(CC)C(=O)CNC(=O)OC(C)(C)C
4. Cc1cccc(-c2cccc(COCc3cccc(-c4cccc(CO)n4)n3)n2)n1
5. CC(C)(CN1CCCCC1)C(=O)CC(SCCN)c1ccc(Cl)cc1 (stereo unspecified)

1. > 100 µM (inactive)
2. > 100 µM (inactive)
3. > 100 µM (inactive)
4. 38.5 µM (inactive)
5. 1.61 µM (inactive)

Which measured GI50 value corresponds to CC(C)(C)OC(=O)NCC(c1c[nH]c2ccccc12)c1c[nH]c2ccccc12 ?
16.1 µM (inactive)

----------
System: XF498
Test: NCI tumour cell line growth inhibition, 48 h
Activity calls are given as the source filed them. Cut-off read from the data, not from the text of the source: active = GI50 up to about 1.1 µM and inactive = higher.
I would appreciate it if you answered using one of these outcomes: active, inactive

Observe how each entry below is paired with its result.
c1ccc(CNn2nnc3ccccc32)cc1    inactive
O=C1C=C[C@@]23CC1C(O)C[C@H]2C=Cc1ccccc13 (some centres not stated)    inactive
O/N=C1/C(=C/c2ccc3c(c2)OCO3)CCCC1C(NO)c1ccc2c(c1)OCO2 (configuration not stated)    inactive
COc1cc(/C=C\c2ccc(C)cc2)cc(OC)c1OC    active
CCCCCCCCCCCCCCC(C)CCC(=O)O (configuration not stated)    inactive

Query compound follows.
Could you check what this test reported for NS(=O)(=O)c1ccc(NC(=O)Cc2nc3ccccc3s2)cc1 ?
inactive

----------
Tested on: NCI-H23
Experiment: NCI tumour cell line growth inhibition, 48 h
The source made the active and inactive calls. Cut-off read from the data, not from the text of the source: active = GI50 up to about 1.1 µM and inactive = higher.
Answer each item with its documented GI50.

Check out these entries, answers already filled in.
Cc1ccc2c(n1)C(=O)c1ccccc1C2=O    14.7 µM (inactive)
O=C1/C(=C/c2ccccc2)CN(C(=O)C(F)(F)F)C/C1=C\c1ccccc1    1.83 µM (inactive)
c1ccc(CNn2nnc3ccccc32)cc1    > 100 µM (inactive)
COC(=O)c1cc(C)ccc1/C=C1\Cc2cccc(C)c2C1=O    > 100 µM (inactive)
O=C1/C(=C/c2ccccc2)CCCc2ccccc21    17.5 µM (inactive)

Dear reader, for each entry below, please note its GI50.
1. O=C(CCCn1cnc([N+](=O)[O-])n1)NCCCn1ccnc1[N+](=O)[O-]
2. CC(C)C(N)(C(=O)O)c1ccccc1 (configuration not stated)
3. Nn1c(Nc2ccc(S(N)(=O)=O)cc2)nnc(/C=C/c2c(O)ccc3ccccc23)c1=O
4. CC(=O)/C=C(/C=N/O)c1ccccc1
5. CC(=O)O[C@]12CCCC1C1(O)C(O)CCCC12 (some centres not stated)
6. CCCCc1ccc(Nc2nc(O)c3ncn(COCCO)c3n2)cc1

> 100 µM (inactive)
> 100 µM (inactive)
4.07 µM (inactive)
> 100 µM (inactive)
> 100 µM (inactive)
93.8 µM (inactive)

----------
Tested on: 786-0
Assay: NCI tumour cell line growth inhibition, 48 h
Activity calls are given as the source filed them. Rule as the data show it: active = GI50 up to about 1.1 µM and inactive = higher.
outcome.measure: GI50

Check out these entries, answers already filled in.
CC(=O)OC[C@@H](OC(C)=O)[C@@H](OC(C)=O)[C@H]1OC[C@@H]2C[C@H]([C@H]1OC(C)=O)N(Cc1ccccc1)O2    > 100 µM (inactive)
O=C(COc1ccccc1)N(C(=O)N1CCN(c2ccccc2)CC1)S(=O)(=O)c1ccccc1    44.2 µM (inactive)
CC(=O)O[C@]12CCCC1C1(O)C(O)CCCC12 (stereo partly specified)    > 100 µM (inactive)
COc1cc2c(cc1OCCCCOc1cc3c(cc1OC)C(=O)N1CCC[C@H]1C(=O)N3)N=C[C@@H]1CCCN1C2=O    13.2 µM (inactive)

Dear reader, for each entry below, please note its GI50.
1. CCC1(CC)C(=O)NC(=O)NC1=S
2. COC(=O)[C@H](C)[C@H]1CC[C@@](C)([C@H]2CC3C(C)(C)[C@H]4CCC(C)=C[C@H]4C[C@@]3(C)O2)OO1 (stereo partly specified)
3. CC(=O)c1cccc(NC(=O)C(=O)Nn2c(N)nnc2N)c1
4. CC(=O)C(CN(C)Cc1ccccc1)C(c1ccccc1)c1c(O)c2ccccc2oc1=O (stereo unspecified)

> 100 µM (inactive)
3.33 µM (inactive)
> 100 µM (inactive)
> 100 µM (inactive)

----------
System: SK-MEL-2
Experiment: NCI tumour cell line growth inhibition, 48 h
Activity calls are given as the source filed them. No stated cut-off is given here; in the data, active = GI50 up to about 1.1 µM and inactive = higher.
I would appreciate it if you answered using one of these outcomes: active, inactive

C=C1CCC2C(C)(CO)C(O)CCC2(C)C1C/C=C1/CCOC1=O (stereo unspecified)    inactive

Could you check what this test reported for CN(C)c1n/c(=N/c2ccc3c(c2)OCO3)ss1 ?
inactive

# repeat for O=Cc1ccccc1COC(=O)c1cc(C(=O)OCc2ccccc2C=O)c(C(=O)OCc2ccccc2C=O)cc1C(=O)OCc1ccccc1C=O
inactive

# repeat for Cc1ccc(NC(=O)CC2C(=O)Nc3ccccc3[S+]2[O-])cc1C (stereo unspecified)
inactive

# repeat for Cc1ncc([N+](=O)[O-])n1CC(O)Cn1cnc([N+](=O)[O-])n1 (stereo unspecified)
inactive

# repeat for Cc1cc2c3ccccc3[nH]c2c2ccnc(C)c12
inactive

# repeat for Cn1cnnc1Sc1c([N+](=O)[O-])nc(-c2ccc([N+](=O)[O-])cc2)n1C
inactive

# repeat for O=[N+]([O-])c1cccc(C2=NOC(C3CCCCC3)C2)c1 (stereo unspecified)
inactive

# repeat for COC(=O)c1sc2c(c1C(=O)OC)/C(=N/c1ccc(OC)cc1)S/C2=N\c1ccc(OC)cc1
active

# repeat for CCc1ncnc2cc(OCC3CO3)c(OC)cc12 (stereo unspecified)
inactive

----------
Answer each item with its documented GI50.
Tested on: SNB-78
Assay: NCI tumour cell line growth inhibition, 48 h
Calls of active or inactive are those of the source. Rule as the data show it: active = GI50 up to about 1.1 µM and inactive = higher.

O=c1c2c(c1=O)-c1ccccc1CN2    > 100 µM (inactive)

Dear reader, for each entry below, please note its GI50.
1. O=P1(Oc2ccccc2)C(c2ccccc2)C(c2ccccc2)=NN1c1ccccc1 (stereo not given)
2. COc1cc(OC)c(SSCCCCS(=O)O)c(OC)c1
3. CCN(CC)CCNc1ccc2ncn3c4ccc(O)cc4c(=O)c1c23
4. NC(=S)N/N=C/c1ccc(OC(=O)COc2ccccc2Cl)cn1

1: 46.5 µM (inactive); 2: 12.1 µM (inactive); 3: 0.541 µM (active); 4: > 80.9 µM (inactive)
